Can you tell me EC50 for the items I'm about to list?
- STUDY_SYSTEM: Relaxin receptor 1 (Homo sapiens, UniProt Q9HBX9)
- Sequence (Q9HBX9 whole entry): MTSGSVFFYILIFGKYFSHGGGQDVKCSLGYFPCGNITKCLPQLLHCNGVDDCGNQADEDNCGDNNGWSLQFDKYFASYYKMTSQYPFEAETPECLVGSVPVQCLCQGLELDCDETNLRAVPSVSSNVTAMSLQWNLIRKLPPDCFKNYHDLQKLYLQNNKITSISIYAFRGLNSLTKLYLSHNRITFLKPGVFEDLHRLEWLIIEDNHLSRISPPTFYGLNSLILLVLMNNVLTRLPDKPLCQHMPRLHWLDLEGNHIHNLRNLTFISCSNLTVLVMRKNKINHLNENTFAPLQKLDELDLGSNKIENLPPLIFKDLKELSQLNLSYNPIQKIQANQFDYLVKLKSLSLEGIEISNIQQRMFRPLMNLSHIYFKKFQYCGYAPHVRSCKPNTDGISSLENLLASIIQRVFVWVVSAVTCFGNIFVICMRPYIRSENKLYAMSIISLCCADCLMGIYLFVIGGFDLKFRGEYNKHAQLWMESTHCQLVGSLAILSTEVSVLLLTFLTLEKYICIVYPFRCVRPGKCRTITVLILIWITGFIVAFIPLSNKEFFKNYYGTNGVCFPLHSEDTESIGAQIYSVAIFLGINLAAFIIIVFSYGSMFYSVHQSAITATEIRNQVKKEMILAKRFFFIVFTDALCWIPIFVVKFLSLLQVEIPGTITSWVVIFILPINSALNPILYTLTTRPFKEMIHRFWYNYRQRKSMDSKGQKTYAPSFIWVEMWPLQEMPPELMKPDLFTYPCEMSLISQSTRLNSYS
- MEASUREMENT_PROTOCOL: Agonist activity at human RXFP1 expressed in T-Rex-CHO-K1 cells assessed as stimulation of cAMP production incubated for 45 mins by HTRF assay
- Format: functional, cell-based
Numeric only. Scale: µM

*Q* What measured EC50 goes with COc1cc(F)ccc1C(=O)N[C@@H]1[C@H](C(=O)Nc2cccc(S(=O)(=O)C(F)(F)F)c2)[C@H]2C=C[C@@H]1C2 (racemic) ?
*A* 1.58

*Q* What measured EC50 goes with COc1cc(F)c(O[C@H]2CC[C@@](C)(C(=O)O)CC2)cc1C(=O)N[C@H]1[C@@H]2CC[C@@H](C2)[C@H]1C(=O)Nc1ccc(F)c(S(F)(F)(F)(F)F)c1 ?
*A* 3.98

*Q* What measured EC50 goes with COc1cc(F)c(OCCCCC(=O)O)cc1C(=O)N[C@H]1[C@@H](C(=O)Nc2cccc(S(=O)(=O)C(F)(F)F)c2)[C@@H]2C=C[C@H]1C2 (racemic) ?
*A* 0.251

*Q* What measured EC50 goes with COc1cc(F)c(C(=O)N2CCC(C)(C(=O)O)CC2)cc1C(=O)N[C@H]1[C@@H](C(=O)Nc2cccc(S(=O)(=O)C(F)(F)F)c2)[C@@H]2C=C[C@H]1C2 (racemic) ?
*A* 3.16

*Q* What measured EC50 goes with COc1cc(F)c(O[C@H]2CC[C@@H](C(=O)O)CC2)cc1C(=O)N[C@@H]1[C@H]2CC[C@H](C2)[C@@H]1C(=O)Nc1ccccc1 ?
*A* 7.94

*Q* What measured EC50 goes with COc1cnc(-c2ccc(C(=O)O)cc2)cc1C(=O)N[C@H]1[C@@H](C(=O)Nc2cccc(S(=O)(=O)C(F)(F)F)c2)[C@@H]2C=C[C@H]1C2 (racemic) ?
*A* 3.98

Every entry's value here was drawn from ChEMBL document CHEMBL5518235.
